Just for reference, patent US20260317344A1 is where these values come from.

ASSAYED_TARGET: pEGFR, PC-9 cells (d746-750 EGFR) (Homo sapiens, UniProt P00533, DEL746-750)
Construct: pEGFR (Tyr1068) TR-FRET
Sequence (P00533 with tags, fused parts or gaps DEL746-750): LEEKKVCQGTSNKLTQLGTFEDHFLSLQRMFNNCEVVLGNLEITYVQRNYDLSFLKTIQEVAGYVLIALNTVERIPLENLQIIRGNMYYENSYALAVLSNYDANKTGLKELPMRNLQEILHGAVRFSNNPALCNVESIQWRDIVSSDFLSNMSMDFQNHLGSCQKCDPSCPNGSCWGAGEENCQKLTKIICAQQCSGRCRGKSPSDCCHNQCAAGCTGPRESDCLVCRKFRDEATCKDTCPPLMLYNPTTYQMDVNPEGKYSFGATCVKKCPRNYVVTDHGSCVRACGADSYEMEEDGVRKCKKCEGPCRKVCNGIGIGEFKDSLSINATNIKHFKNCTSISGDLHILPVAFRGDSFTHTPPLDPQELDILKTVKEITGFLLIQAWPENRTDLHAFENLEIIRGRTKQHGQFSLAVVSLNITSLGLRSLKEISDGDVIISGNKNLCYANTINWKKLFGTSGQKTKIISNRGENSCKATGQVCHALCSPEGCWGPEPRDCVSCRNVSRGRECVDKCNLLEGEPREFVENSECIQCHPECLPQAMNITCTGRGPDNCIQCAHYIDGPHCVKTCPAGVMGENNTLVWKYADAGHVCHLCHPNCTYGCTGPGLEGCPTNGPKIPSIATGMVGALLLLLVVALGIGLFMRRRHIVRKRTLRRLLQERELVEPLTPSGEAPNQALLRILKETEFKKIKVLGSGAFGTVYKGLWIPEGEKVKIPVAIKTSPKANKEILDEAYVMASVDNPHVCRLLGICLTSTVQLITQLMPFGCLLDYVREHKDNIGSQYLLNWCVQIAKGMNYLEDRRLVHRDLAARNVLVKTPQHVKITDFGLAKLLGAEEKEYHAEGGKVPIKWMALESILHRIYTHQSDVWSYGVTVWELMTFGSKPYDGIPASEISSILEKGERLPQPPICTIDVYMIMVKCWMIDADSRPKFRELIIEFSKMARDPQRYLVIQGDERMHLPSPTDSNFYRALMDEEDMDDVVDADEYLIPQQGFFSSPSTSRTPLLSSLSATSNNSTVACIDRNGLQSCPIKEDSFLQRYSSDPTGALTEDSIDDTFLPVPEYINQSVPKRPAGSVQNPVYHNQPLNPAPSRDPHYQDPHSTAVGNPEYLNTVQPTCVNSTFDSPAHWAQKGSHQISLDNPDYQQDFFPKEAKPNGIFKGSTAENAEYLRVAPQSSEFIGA
EXPERIMENT_DESCRIPTION: Cellular EGFR phosphorylation assay (LANCE Ultra TR-FRET) in PC-9 cells
Format: cell-based
CONDITIONS_USED: 4 hours at 37° C., read-out: PC-9 pEGFR IC50
pIC50: −log10 of the molar value.
PARAMETER_MEASURED: pIC50

Below, 2 molecules whose answers are already recorded.
CCOc1nn([C@@H](C)CO)c2c1/C=C/c1n[nH]c3cnc(cc13)-c1c(C)nn(C)c1OC[C@@H](C)N(C1CC1)C2 [Ex. 111]    8.97
CCOc1nn(CCO)c2c1/C=C/c1n[nH]c3cnc(cc13)-c1c(C)nn(C)c1O[C@@H](C)[C@H]1CCCN1C2 [Ex. 32]    8.97

a. CCOc1nn([C@@H](C)CO)c2c1/C=C/c1n[nH]c3cnc(cc13)-c1c(C)nn(C)c1O[C@@H](C)CN(CC)C2 [Ex. 26]
b. CCOc1nn(CCO)c2c1/C=C/c1n[nH]c3cnc(cc13)-c1c(C)nn(C)c1OC[C@@H](C)N(C1CC1)C2 [Ex. 114]
Problem: Please let me know which one, a or b , has a lower measured pIC50 value. Bench note: the answer is the label of the chosen record.
Solution: b
(b: 8.45, a: 8.80)

###

ASSAYED_TARGET: EGFR (L858R/T790M/C797S) (Homo sapiens, UniProt P00533, C797S/L858R/T790M)
Sequence (P00533 25-1210 T790M/C797S/L858R): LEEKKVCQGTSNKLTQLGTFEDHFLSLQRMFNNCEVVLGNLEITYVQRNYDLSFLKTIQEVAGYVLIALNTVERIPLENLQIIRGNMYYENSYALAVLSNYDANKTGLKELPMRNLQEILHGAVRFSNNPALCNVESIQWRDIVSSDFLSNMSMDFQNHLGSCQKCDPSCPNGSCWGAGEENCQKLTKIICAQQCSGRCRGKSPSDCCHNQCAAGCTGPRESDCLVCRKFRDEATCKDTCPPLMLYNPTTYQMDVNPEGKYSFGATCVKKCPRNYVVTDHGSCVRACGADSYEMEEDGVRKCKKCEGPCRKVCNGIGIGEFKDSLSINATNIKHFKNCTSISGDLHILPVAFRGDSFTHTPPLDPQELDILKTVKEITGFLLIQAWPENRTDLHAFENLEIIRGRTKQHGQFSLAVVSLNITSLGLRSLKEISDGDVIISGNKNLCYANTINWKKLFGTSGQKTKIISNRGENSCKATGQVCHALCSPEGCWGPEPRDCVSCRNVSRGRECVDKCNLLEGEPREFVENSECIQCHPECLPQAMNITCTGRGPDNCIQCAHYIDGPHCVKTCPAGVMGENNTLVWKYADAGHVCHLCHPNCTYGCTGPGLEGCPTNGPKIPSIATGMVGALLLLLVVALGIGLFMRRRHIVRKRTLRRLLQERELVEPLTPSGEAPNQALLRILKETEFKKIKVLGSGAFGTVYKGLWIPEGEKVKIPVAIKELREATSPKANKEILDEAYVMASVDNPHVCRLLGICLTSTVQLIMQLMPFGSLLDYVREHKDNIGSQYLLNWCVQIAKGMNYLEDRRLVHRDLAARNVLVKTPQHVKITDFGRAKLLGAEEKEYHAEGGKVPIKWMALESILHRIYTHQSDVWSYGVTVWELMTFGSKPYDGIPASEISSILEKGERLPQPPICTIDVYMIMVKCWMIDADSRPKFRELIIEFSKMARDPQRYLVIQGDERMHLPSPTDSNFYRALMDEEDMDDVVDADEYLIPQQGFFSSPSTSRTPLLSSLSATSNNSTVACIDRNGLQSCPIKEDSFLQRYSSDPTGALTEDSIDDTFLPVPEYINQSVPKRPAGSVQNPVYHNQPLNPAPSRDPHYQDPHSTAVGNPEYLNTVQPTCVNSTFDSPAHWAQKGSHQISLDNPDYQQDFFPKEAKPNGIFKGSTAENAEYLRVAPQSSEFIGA
EXPERIMENT_DESCRIPTION: HotSpot radiometric kinase assay, inhibition of EGFR L858R/T790M/C797S mutant
CONDITIONS_USED: 33P ATP, room temperature, 120 m
pIC50: −log10 of the molar value.
PARAMETER_MEASURED: pIC50

Below, 4 compounds whose answers are already recorded.
CCOc1nn([C@@H](C)CO)c2c1/C=C/c1n[nH]c3cnc(cc13)-c1c(C)nn(C)c1O[C@H](C)CN(C)C2    9.39
CCOc1nn([C@@H](C)CO)c2c1/C=C/c1n[nH]c3cnc(cc13)-c1c(C)nn(C)c1O[C@H](C)CN(CC)C2    9.24
CCOc1nn(CCO)c2c1/C=C/c1n[nH]c3cnc(cc13)-c1c(C)nn(C)c1O[C@H](C)CN(CC)C2    8.63
Cc1nc2cc3c(n[nH]c13)/C=C/c1c(OC(C)C)nn(CCO)c1CN(C)C[C@H](C)Oc1c-2cnn1C    9.35

1. CCN1Cc2c(c(OCC#N)nn2CCO)/C=C/c2n[nH]c3cnc(cc23)-c2c(C)nn(C)c2O[C@H](C)C1
2. CC(C)Oc1nn(CCO)c2c1/C=C/c1n[nH]c3cnc(cc13)-c1cnn(C)c1OC[C@H](C)N(C(C)C)C2
3. CCc1nn(CCO)c2c1/C=C/c1n[nH]c3cnc(cc13)-c1c(C)nn(C)c1O[C@H](C)CN(CC)C2
Problem: Order these by pIC50, descending, and give the full ranking. Response field: labels, in requested order.
Solution: 1, 3, 2
(1: 9.89, 3: 9.28, 2: 8.87)
